Assay: folding enthalpy; higher = less favourable; fluorescence melt of hairpins on a sequencing array, two-state fit
Conditions: sodium 0.088 M
folding enthalpy values by entry
PROPERTY_MEASURED: folding enthalpy (kcal/mol)

| BIOSEQUENCE | UNITS | RECORDED_VALUE |
| --- | --- | --- |
| GGCCTGGGAAACCAGGTC (.(((((....))))).) | kcal/mol | -33 |
| GTATCCGAAAGGAATAC ((((((....))).))) | kcal/mol | -23.2 |
| GAGTTGCGAAAGCAGCTC (((.(((....))).))) | kcal/mol | -32.4 |
| CGATCGGAAACGATCTCG ((((((....)))..))) | kcal/mol | -12.1 |
| GCGAAGGGAAACTTTCGC (((((.(....).))))) | kcal/mol | -30.2 |
| GGTGGAACGAAAGTTACC (((..(((....)))))) | kcal/mol | -17.3 |
| GTATCGCGAAAGCGCTAC (((.(((....))).))) | kcal/mol | -18.4 |
| CGGCGGCGGAAACGCCCG (((..(((....)))))) | kcal/mol | -10.4 |
| GTCGACCGAAAGGTGGAC (((.(((....))).))) | kcal/mol | -42.1 |
| ATCTGGAAACAGAT (((((....))))) | kcal/mol | -18.3 |
| GATCTCGCAAGAGATC ((((((....)))))) | kcal/mol | -37.5 |
| GATCTCAAAGGAGATC ((((((....)))))) | kcal/mol | -33.4 |
| GATCATTTTAATGATC ((((((....)))))) | kcal/mol | -53.2 |
| GGGCCTGGAAACAAGCCC ((((.((....)).)))) | kcal/mol | -33.3 |
| GCAATGCGAAAGCAAAGC ((..(((....)))..)) | kcal/mol | -14.6 |
| GCTTGGGGAAACTCAGGC ((.((.(....).)).)) | kcal/mol | -18.2 |
| GCTAGTGAAAACTAGC ((((((....)))))) | kcal/mol | -36.3 |
| GGCACTCCGAAAGGAGCC (((..(((....)))))) | kcal/mol | -9.55 |
| GATCAGGTTCCTGATC ((((((....)))))) | kcal/mol | -47.5 |
| GATCAACCCTTTGATC ((((((....)))))) | kcal/mol | -39.2 |
| GTGGGCGAAAGCCAACAC ((((((....)))..))) | kcal/mol | -15 |
| GGGTTTCGAAAGAACCC (((.(((....)))))) | kcal/mol | -38 |
| GACTATGGAAACATGGTC (((.(((....))).))) | kcal/mol | -35.5 |
| GATCGCACCAGCGATC ((((((....)))))) | kcal/mol | -31.2 |
| GGCGAGCGAAAGCTGCC (((.(((....)))))) | kcal/mol | -27.6 |
